Measured melting point by item

Previously resolved entries follow.
smiles=O=C([O-])CSc1nnc(Br)n1Cc1sc2ccccc2c1Br.[Na+] reading="99 °C (dec.)"
smiles=O=C([O-])CSc1nnc(Br)n1Cc1ccsc1.[Na+] reading="124 to 126 °C"
smiles=Cc1ccsc1Cn1c(Br)nnc1SCC(=O)[O-].[Na+] reading="158 °C (dec.)"
smiles=O=C([O-])CSc1nnc(Br)n1CC12CC3CC(CC(C3)C1)C2.[Na+] reading="194 °C (dec.)"
smiles=O=C([O-])CSc1nnc(Br)n1Cc1ccccc1.[Na+] reading="119 to 121 °C"
smiles=CC(C)(Sc1ncc(Br)n1Cc1cccs1)C(=O)[O-].[Na+] reading="75 °C (dec.)"
smiles=O=C([O-])CSc1nnc(Br)n1C(c1ccccc1)c1ccccc1.[Na+] reading="195 °C (dec.)"
smiles=N#Cc1ccc(Cn2c(Br)cnc2SC2(C(=O)[O-])CCC2)c2ccccc12.[Na+] reading="285 °C (dec.)"
smiles=O=C([O-])CSc1nnc(Br)n1Cc1ccc(Cl)s1.[Na+] reading="97 °C (dec.)"
smiles=N#Cc1ccc(Cn2c(Br)nnc2SC2(C(=O)[O-])CCC2)c2ccccc12.[Na+] reading="136 °C (dec.)"

## Task Please report the recorded melting point for O=C([O-])CSc1nnc(Br)n1Cc1ccc(-c2ccccc2)s1.[Na+] .
## Result 212 °C (dec.)
